target: human PCSK9 / human LDLR EGFa domain interaction (Homo sapiens (Human), UniProt Q8NBP7); experiment: TR-FRET assay of inhibition of the PCSK9-LDLR protein-protein interaction; format: binding; settings: TR-FRET, 20 nM human PCSK9, 20 nM human LDLR EGFa domain, 2 hours room temperature; read-out: IC50
Sequence (Q8NBP7 153-692): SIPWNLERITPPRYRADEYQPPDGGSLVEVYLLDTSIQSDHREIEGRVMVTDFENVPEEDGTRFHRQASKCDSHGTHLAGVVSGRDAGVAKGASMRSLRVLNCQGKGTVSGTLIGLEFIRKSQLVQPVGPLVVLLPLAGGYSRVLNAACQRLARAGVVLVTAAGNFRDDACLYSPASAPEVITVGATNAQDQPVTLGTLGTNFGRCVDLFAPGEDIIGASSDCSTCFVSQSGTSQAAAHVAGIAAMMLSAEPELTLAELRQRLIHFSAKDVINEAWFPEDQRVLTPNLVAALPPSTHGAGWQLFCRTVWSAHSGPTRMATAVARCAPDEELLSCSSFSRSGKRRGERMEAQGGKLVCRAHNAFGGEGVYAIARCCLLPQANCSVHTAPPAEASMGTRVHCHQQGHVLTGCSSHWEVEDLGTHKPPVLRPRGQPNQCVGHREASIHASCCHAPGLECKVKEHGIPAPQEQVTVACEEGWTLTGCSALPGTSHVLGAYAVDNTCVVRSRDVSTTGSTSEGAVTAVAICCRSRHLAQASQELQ
Sequence (Q8NBP7 31-152 partner): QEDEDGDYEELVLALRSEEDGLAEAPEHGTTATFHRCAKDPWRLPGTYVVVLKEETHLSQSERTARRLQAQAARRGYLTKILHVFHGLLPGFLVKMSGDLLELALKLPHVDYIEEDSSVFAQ
Starred links: 1 amine or outer side, 2 acyl side, 3 side chain; linkers in the order of their positions; H or OH if unused. Positions of bridges follow the written chain, without caps; N, C: chain ends. Non-standard residues stand in square brackets, D forms with d. Residues, ends and D or L forms follow the SMILES beside them. ξ: configuration not given here. *: point of attachment. Ala(benzothiazol-2-yl) = N[C@@H](Cc1nc2ccccc2s1)C(=O)O; X18 = O=C([C@@H](Cc1cccc(OCC=[*:3])c1)N[*:1])[*:2]; Phe(4-COOH) = N[C@@H](Cc1ccc(C(=O)O)cc1)C(=O)O; Trp(5-F) = N[C@@H](Cc1c[nH]c2ccc(F)cc12)C(=O)O; Trp(6-F) = N[C@@H](Cc1c[nH]c2cc(F)ccc12)C(=O)O; X4 = O=C(CCSCc1cccc(CSCCN[*:1])c1)[*:2]; mXylylene = c1cc(C[*:1])cc(C[*:2])c1; X35 = COc1cc(C[*:1])cc(C[*:2])c1; ξAEF = NCCOc1ccc(CC(N)C(=O)O)cc1; X22 = Oc1cc(C[*:1])cc(C[*:2])c1; AllylGly = C=CC[C@H](N)C(=O)O; αMeP = C[C@@]1(C(=O)O)CCCN1; OBn = c1ccc(CO*)cc1; Mpa = O=C(O)CCS
VALUE TYPE: IC50

>  <COMPOUND>
COc1ccc(C[C@@H]2NC(=O)[C@H]([C@@H](C)O)NC(=O)[C@@H]3CCCN3C(=O)[C@H](Cc3c[nH]c4ccc(F)cc34)NC(=O)[C@H](Cc3c[nH]c4ccc(F)cc34)NC(=O)[C@@H](C)NC(=O)[C@H](CCCCN)NC(=O)CCSCc3cc(O)cc(c3)CSC[C@@H](C(N)=O)NC(=O)[C@]3(C)CCCN3C2=O)cc1 [Compound 060] ([Mpa]K[dA][Trp(5-F)][Trp(5-F)]PTY(Me)[αMeP]C-NH2; linker 1-10 via X22)

>  <IC50>
21 to 50 µM

$$$$
>  <COMPOUND>
COc1ccc(C[C@@H]2NC(=O)[C@H](Cc3ccc(OC)cc3)NC(=O)[C@@H](CC(C)C)NC(=O)[C@H]([C@@H](C)OC)NC(=O)CCSCc3cccc(c3)CSC[C@@H](C(N)=O)NC(=O)[C@@H]3CCCN3C(=O)[C@H](Cc3ccc(OC)cc3)NC(=O)[C@H](Cc3ccc(OC)cc3)NC(=O)[C@H](CC(C)C)NC2=O)cc1 [Compound 034] ([Mpa]T(Me)[dL]Y(Me)Y(Me)LY(Me)Y(Me)PC-NH2; linker 1-10 via mXylylene)

>  <IC50>
0.0001 to 0.1 µM

$$$$
>  <COMPOUND>
C[C@@H]1NC(=O)CCSCc2cccc(c2)CSCCNC(=O)[C@]2(C)CCCN2C(=O)[C@H](Cc2ccc(O)cc2)NC(=O)[C@H](C)NC(=O)[C@@H]2C/C=C\COc3cccc(c3)C[C@@H](NC(=O)[C@@H](C)NC1=O)C(=O)N[C@@H](Cc1c[nH]c3ccc(F)cc13)C(=O)N2 [Compound 498] (cyclo(AY[αMeP][X4]A[dA][X18][Trp(5-F)][AllylGly]); staple (Z) 7-9)

>  <IC50>
1 to 12.1 µM

$$$$
>  <COMPOUND>
COc1ccc(C[C@@H]2NC(=O)[C@@H]3CCC/C=C\CO[C@H]4C[C@@H](C(=O)N3)N(C4)C(=O)[C@H](Cc3c[nH]c4ccc(F)cc34)NC(=O)[C@H](Cc3c[nH]c4ccc(F)cc34)NC(=O)[C@@H](C)NC(=O)CCCCCC(=O)NCc3ccc(cc3)C[C@@H](C(N)=O)NC(=O)[C@]3(C)CCCN3C2=O)cc1

>  <IC50>
0.0001 to 0.1 µM

$$$$
>  <COMPOUND>
CC(=O)N[C@@H]1CC(=O)NCCOc2ccc(cc2)CC(C(N)=O)NC(=O)[C@]2(C)CCCN2C(=O)[C@H](Cc2ccc(O)cc2)NC(=O)[C@H](Cc2cnc[nH]2)NC(=O)[C@H](CC(=O)OCc2ccccc2)NC(=O)[C@H](Cc2c[nH]c3ccc(F)cc23)NC(=O)[C@H](Cc2c[nH]c3ccc(F)cc23)NC(=O)CNC1=O (stereo partly shown) [Compound 321] (Ac-[dD]G[Trp(5-F)][Trp(5-F)]D(OBn)HY[αMeP][ξAEF]-NH2; lactam 1-9)

>  <IC50>
0.1 to 1 µM

$$$$
>  <COMPOUND>
NCCCC[C@@H]1NC(=O)CCSCc2cccc(c2)CSC[C@@H](C(N)=O)NC(=O)[C@@H]2CCCN2C(=O)[C@H](Cc2nc3ccccc3s2)NC(=O)[C@H](Cc2c[nH]cn2)NC(=O)[C@H](CC(=O)O)NC(=O)[C@H](Cc2c[nH]c3ccc(F)cc23)NC(=O)[C@H](Cc2c[nH]c3ccc(F)cc23)NC(=O)CNC1=O [Compound 266] ([Mpa]KG[Trp(5-F)][Trp(5-F)]DH[Ala(benzothiazol-2-yl)]PC-NH2; linker 1-10 via mXylylene)

>  <IC50>
21 to 50 µM

$$$$
>  <COMPOUND>
COc1ccc(C[C@@H]2NC(=O)[C@H](Cc3cnc[nH]3)NC(=O)[C@H](CC(=O)O)NC(=O)[C@H](Cc3c[nH]c4ccc(F)cc34)NC(=O)[C@H](Cc3c[nH]c4ccc(F)cc34)NC(=O)[C@@H](C)NC(=O)[C@H](NC(C)=O)Cc3cn(nn3)-c3ccc(cc3)C[C@@H](C(N)=O)NC(=O)[C@]3(C)CCCN3C2=O)cc1

>  <IC50>
0.1 to 1 µM

$$$$
>  <COMPOUND>
COc1ccc(C[C@@H]2NC(=O)[C@H]([C@@H](C)O)NC(=O)[C@@H]3C[C@H](F)CN3C(=O)[C@H](Cc3c[nH]c4ccc(F)cc34)NC(=O)[C@H](Cc3c[nH]c4ccc(F)cc34)NC(=O)[C@@H](C)NC(=O)[C@H](CCCCN)NC(=O)CCC/C=C\Cc3ccc(cc3)C[C@@H](C(N)=O)NC(=O)[C@]3(C)CCCN3C2=O)cc1

>  <IC50>
21 to 50 µM

$$$$
>  <COMPOUND>
COc1ccc(C[C@@H]2NC(=O)[C@H]([C@@H](C)O)NC(=O)[C@@H]3CCCN3C(=O)[C@H](Cc3c[nH]c4ccc(F)cc34)NC(=O)[C@H](Cc3c[nH]c4ccc(F)cc34)NC(=O)[C@@H](C)NC(=O)[C@H](CCCCN)NC(=O)CCSCc3cc(cc(OC)c3)CSC[C@@H](C(N)=O)NC(=O)[C@]3(C)CCCN3C2=O)cc1 [Compound 063] ([Mpa]K[dA][Trp(5-F)][Trp(5-F)]PTY(Me)[αMeP]C-NH2; linker 1-10 via X35)

>  <IC50>
1 to 12.1 µM

$$$$

Qu. Suppose we examine the compound CC(=O)N[C@H]1CCCCNC(=O)c2ccc(cc2)C[C@@H](C(N)=O)NC(=O)[C@]2(C)CCCN2C(=O)[C@H](Cc2ccc(O)cc2)NC(=O)[C@H](Cc2cnc[nH]2)NC(=O)[C@H](CC(=O)O)NC(=O)[C@H](Cc2c[nH]c3cc(F)ccc23)NC(=O)[C@H](Cc2c[nH]c3ccc(F)cc23)NC(=O)CNC(=O)[C@H](C)NC1=O [Compound 312] (Ac-KAG[Trp(5-F)][Trp(6-F)]DHY[αMeP][Phe(4-COOH)]-NH2; lactam 1-10) ; what IC50 value has been reported?
Ans. 0.1 to 1 µM

* * *

molecular target: human PCSK9 / human LDLR EGFa domain interaction (Homo sapiens (Human)); assay: TR-FRET assay of inhibition of the PCSK9-LDLR protein-protein interaction; assay type: binding; conditions: TR-FRET, 20 nM human PCSK9, 20 nM human LDLR EGFa domain, 2 hours room temperature; read-out: IC50
pIC50: −log10 of the molar value. Starred links: 1 amine or outer side, 2 acyl side, 3 side chain; linkers in the order of their positions; H or OH if unused. Positions of bridges follow the written chain, without caps; N, C: chain ends. Non-standard residues stand in square brackets, D forms with d. Residues, ends and D or L forms follow the SMILES beside them. Trp(5-F) = N[C@@H](Cc1c[nH]c2ccc(F)cc12)C(=O)O; X12 = O=C([C@H](CCCCC=[*:3])N[*:1])[*:2]; X17 = O=C(CCSCc1ccc(CSCCN[*:1])cc1)[*:2]; Pro(4S-NH2) = N[C@@H]1CN[C@H](C(=O)O)C1; X4 = O=C(CCSCc1cccc(CSCCN[*:1])c1)[*:2]; X23 = CC[C@@]1(C(=O)[*:2])CCCN1[*:1]; mXylylene = c1cc(C[*:1])cc(C[*:2])c1; Aad = N[C@@H](CCCC(=O)O)C(=O)O; αMeP = C[C@@]1(C(=O)O)CCCN1; Mpa = O=C(O)CCS
VALUE TYPE: pIC50

Sample answers from the record:
>  <COMPOUND>
C[C@@H]1NC(=O)[C@H](CCCCN)NC(=O)CCSCc2cccc(c2)CSC[C@@H](C(N)=O)NC(=O)[C@@H]2CCCN2C(=O)[C@H](Cc2ccc(O)cc2)NC(=O)[C@H](Cc2cnc[nH]2)NC(=O)[C@H](CC(=O)O)NC(=O)[C@H](Cc2c[nH]c3ccc(F)cc23)NC(=O)[C@H](Cc2c[nH]c3ccc(F)cc23)NC1=O [Compound 156] ([Mpa]KA[Trp(5-F)][Trp(5-F)]DHYPC-NH2; linker 1-10 via mXylylene)

>  <SYSTEM TESTED>
human PCSK9 / human LDLR EGFa domain interaction (Homo sapiens (Human))

>  <pIC50>
4.92 to 6.00

$$$$
>  <COMPOUND>
COc1ccc(C[C@@H]2NC(=O)[C@H](CCCC(=O)O)NC(=O)[C@@H]3C[C@H](N)CN3C(=O)[C@H](Cc3c[nH]c4ccc(F)cc34)NC(=O)[C@H](Cc3c[nH]c4ccc(F)cc34)NC(=O)[C@@H](C)NC(=O)[C@H](C)NC(=O)CCSCc3ccc(cc3)CSCCNC(=O)[C@]3(C)CCCN3C2=O)cc1 [Compound 345] (cyclo(A[dA][Trp(5-F)][Trp(5-F)][Pro(4S-NH2)][Aad]Y(Me)[αMeP][X17]))

>  <SYSTEM TESTED>
human PCSK9 / human LDLR EGFa domain interaction (Homo sapiens (Human))

>  <pIC50>
4.30 to 4.68

$$$$
>  <COMPOUND>
CC[C@@]12CCCN1C(=O)[C@H](Cc1ccc(O)cc1)NC(=O)[C@H](Cc1cnc[nH]1)NC(=O)[C@H](CC(=O)O)NC(=O)[C@H](Cc1c[nH]c3ccc(F)cc13)NC(=O)[C@H](Cc1c[nH]c3ccc(F)cc13)NC(=O)CNC(=O)[C@H](CCCCN)NC(=O)CCSCc1cccc(c1)CSC[C@@H](C(N)=O)NC2=O [Compound 378] ([Mpa]KG[Trp(5-F)][Trp(5-F)]DHY[X23]C-NH2; linker 1-10 via mXylylene)

>  <SYSTEM TESTED>
human PCSK9 / human LDLR EGFa domain interaction (Homo sapiens (Human))

>  <pIC50>
7.00 to 10.00

$$$$
>  <COMPOUND>
COc1ccc(C[C@@H]2NC(=O)[C@@H]3CCCCCCO[C@H]4C[C@@H](C(=O)N3)N(C4)C(=O)[C@H](Cc3c[nH]c4ccc(F)cc34)NC(=O)[C@H](Cc3c[nH]c4ccc(F)cc34)NC(=O)[C@@H](C)NC(=O)[C@H](CCCCN)NC(=O)CCSCc3cccc(c3)CSC[C@@H](C(N)=O)NC(=O)[C@]3(C)CCCN3C2=O)cc1

>  <SYSTEM TESTED>
human PCSK9 / human LDLR EGFa domain interaction (Homo sapiens (Human))

>  <pIC50>
6.00 to 7.00

$$$$

Here is another compound to look at.
Qu. Find the recorded pIC50 belonging to COc1ccc(C[C@@H]2NC(=O)[C@H]([C@@H](C)O)NC(=O)[C@@H]3CCCC/C=C\CCCC[C@H](NC(=O)[C@@H](C)NC(=O)[C@H](C)NC(=O)CCSCc4cccc(c4)CSCCNC(=O)[C@]4(C)CCCN4C2=O)C(=O)N[C@@H](Cc2c[nH]c4ccc(F)cc24)C(=O)N3)cc1 [Compound 495] (cyclo(A[dA][X12][Trp(5-F)][X12]TY(Me)[αMeP][X4]); staple (Z) 3-5) and report it.
Ans. 6.00 to 7.00
